Tested on: Klebsiella pneumoniae
Conditions: Concentration 20 uM; ASSAY_TEST Inhibition of Bacterial Growth; detection method Absorption (OD600); MEDIA CAMHB; plate type 384well; NBS; CORNING #3640; time 18 hr
Description: Antibacterial activity against Klebsiella pneumoniae MDR ATCC 70063 (CO-ADD:GN_003); MIC in CAMBH media using NBS plates, by OD(600)
Measured potencies and affinities stand elsewhere.
A collection of compounds and their measured Inhibition

>  <Compound>
O=C(Nc1ccc(F)c(-c2nc3cc(-c4ccccc4)cnc3[nH]2)c1)N1CCCC1

>  <Inhibition / %>
7.38

$$$$
>  <Compound>
CNC(=O)C1Cc2c([nH]c3cc(Cl)ccc23)C2(CCN(CCc3ccccc3)CC2)N1 (centres undefined)

>  <Inhibition / %>
10.39

$$$$
>  <Compound>
COc1ccc(-c2cnc3cnc(-c4cccc(OC(C)C)c4)cn23)cc1

>  <Inhibition / %>
4.82

$$$$
>  <Compound>
Cc1nc(-c2ccccn2)nc(NCCc2ccc(S(C)(=O)=O)cc2)c1Cl

>  <Inhibition / %>
10.15

$$$$

---

Tested on: Cryptococcus neoformans
Conditions: Concentration 20 uM; ASSAY_TEST Inhibition of Fungal Growth; detection method Resazurin; Absorption (OD600-OD570); plate type 384well; NBS; CORNING #3640
Description: Antifungal activity against Cryptococcus neoformans H99 ATCC 208821 (CO-ADD:FG_002); MIC in YNB media using NBS plates, by Resazurin OD(600-570)
Measured potencies and affinities stand elsewhere.

>  <Molecule>
OCc1ccc(-c2cncc(Nc3cccc(Cl)c3)c2)cc1

>  <Inhibition>
-14.16%

$$$$
>  <Molecule>
CNC(=O)c1nn(C)c2c1C(C)(C)Cc1cnc(Nc3ccc(N4CCN(C)CC4)cc3)nc1-2 [MILCICLIB]

>  <Inhibition>
-4.76%

$$$$
>  <Molecule>
CC1(COc2ccc(N3CCC(Oc4ccc(OC(F)(F)F)cc4)CC3)cc2)Cn2cc([N+](=O)[O-])nc2O1 (centres undefined)

>  <Inhibition>
-2.75%

$$$$
>  <Molecule>
c1ccc(-c2cc(N3CCCCC3)c3ccccc3n2)nc1

>  <Inhibition>
-6.72%

$$$$
>  <Molecule>
Cc1cc(C)c2cc(C(=O)NC3CCCCCCC3)[nH]c2c1

>  <Inhibition>
-6.05%

$$$$
>  <Molecule>
O=C(NC1CC1)c1ccc(N2CCC(Cc3ccccc3)CC2)nc1

>  <Inhibition>
-7.07%

$$$$
>  <Molecule>
O=C(c1[nH]nc2c1CCCC2)N1CCN(Cc2ccc3c(c2)OCO3)CC1

>  <Inhibition>
-11.77%

$$$$
>  <Molecule>
Cl.NCC(c1cccs1)S(=O)(=O)c1ccccc1 (centres undefined)

>  <Inhibition>
-1.15%

$$$$
>  <Molecule>
Cc1cc(OCC(=O)NCc2ccccc2)c2cc(Br)ccc2n1

>  <Inhibition>
-5.48%

$$$$
>  <Molecule>
Cc1cc(NC(=O)c2ccc(S(=O)(=O)N(Cc3ccccc3)C(C)C)cc2)no1

>  <Inhibition>
-4.62%

$$$$
>  <Molecule>
O=C(NCc1cc(Cl)cc(Cl)c1)c1c(C(F)(F)F)nc2ccccn12

>  <Inhibition>
-5.43%

$$$$
>  <Molecule>
COc1cc(-c2cc(-c3ccc(S(C)(=O)=O)cc3)cnc2N)ccc1O

>  <Inhibition>
-7.2%

$$$$
>  <Molecule>
CCC(C)NC(=O)c1ccc(NC(=O)C2(c3ccccc3)CCCC2)cc1 (centres undefined)

>  <Inhibition>
9.11%

$$$$
>  <Molecule>
COc1cc(C2=NCCN2)ccc1-c1cn(-c2cccc(C3=NCCN3)c2)nn1

>  <Inhibition>
3.58%

$$$$
>  <Molecule>
O=C(NCc1ccco1)N1CCN(Cc2ccc(Cl)s2)CC1

>  <Inhibition>
-2.89%

$$$$
>  <Molecule>
COc1ccc(C(=N)N)cc1-c1cn(-c2ccc(C(=N)N)cc2)nn1.Cl.Cl

>  <Inhibition>
4.63%

$$$$
>  <Molecule>
OC[C@H]1O[C@@H](n2c3ccc(Cl)cc3c3c(-c4cc5ccccc5o4)ncnc32)C(O)[C@H]1O (some centres undefined)

>  <Inhibition>
3.55%

$$$$
>  <Molecule>
Cc1ccc(C(=O)Nc2ccc(S(=O)(=O)O)c3cc(S(=O)(=O)O)cc(S(=O)(=O)O)c23)cc1NC(=O)c1cccc(NC(=O)Nc2cccc(C(=O)Nc3cc(C(=O)Nc4ccc(S(=O)(=O)O)c5cc(S(=O)(=O)O)cc(S(=O)(=O)O)c45)ccc3C)c2)c1 [SURAMIN]

>  <Inhibition>
2.45%

$$$$
>  <Molecule>
Cl.Cn1ccnc1CNCCS(=O)(=O)c1cccc(Nc2ccc(-c3cccc(F)c3)cn2)c1

>  <Inhibition>
-9.08%

$$$$

---

A collection of compounds and their measured Inhibition
Test system: Klebsiella pneumoniae
Conditions: Concentration 20 uM; ASSAY_TEST Inhibition of Bacterial Growth; detection method Absorption (OD600); MEDIA CAMHB; plate type 384well; NBS; CORNING #3640; time 18 hr
Results with a measured potency or affinity are listed apart.

>  <Compound>
N=C(N)c1ccc(-c2cc(-c3ccccc3)on2)cc1

>  <Assayed Target>
Klebsiella pneumoniae

>  <Inhibition, %>
18.39

$$$$
>  <Compound>
O=C1[C@@H](Oc2ccccc2)[C@@H](c2ccc(Cl)cc2)N1CCn1cnc2c(NCc3ccccc3)ncnc21

>  <Assayed Target>
Klebsiella pneumoniae

>  <Inhibition, %>
2.13

$$$$
>  <Compound>
CNC1C(OC2C(OC3C(O)C(O)C(NC(=N)N)C(O)C3NC(=N)N)OC(C)C2(O)C=O)OC(CO)C(O)C1O.CNC1C(OC2C(OC3C(O)C(O)C(NC(=N)N)C(O)C3NC(=N)N)OC(C)C2(O)C=O)OC(CO)C(O)C1O.O=S(=O)(O)O.O=S(=O)(O)O.O=S(=O)(O)O (stereo not given)

>  <Assayed Target>
Klebsiella pneumoniae

>  <Inhibition, %>
-10.2

$$$$
>  <Compound>
COc1ccc(N(CCc2cccc(C)n2)C(C)=O)cc1

>  <Assayed Target>
Klebsiella pneumoniae

>  <Inhibition, %>
13.85

$$$$
>  <Compound>
O=C(c1cc2ccccc2o1)N1CCN(Cc2ccc3c(c2)OCO3)CC1

>  <Assayed Target>
Klebsiella pneumoniae

>  <Inhibition, %>
9.23

$$$$
>  <Compound>
O=C(CCC1CCCCC1)Nc1cccc(-c2nnc(-c3ccco3)o2)c1

>  <Assayed Target>
Klebsiella pneumoniae

>  <Inhibition, %>
9.71

$$$$
>  <Compound>
Cc1nn(C)cc1C(C)Nc1nncc(-c2ccc(C(F)(F)F)cc2)n1 (stereo not given)

>  <Assayed Target>
Klebsiella pneumoniae

>  <Inhibition, %>
3.18

$$$$
>  <Compound>
O=C(NC1=NCCS1)c1sc2cc(F)ccc2c1Cl

>  <Assayed Target>
Klebsiella pneumoniae

>  <Inhibition, %>
1.67

$$$$
>  <Compound>
COc1ccc(-c2nc(-c3cccc(NC(=O)Cc4ccc(F)cc4)c3)no2)cc1OC

>  <Assayed Target>
Klebsiella pneumoniae

>  <Inhibition, %>
13.72

$$$$
>  <Compound>
Nc1nccc2ccc(-c3ccc4nccn4c3)cc12

>  <Assayed Target>
Klebsiella pneumoniae

>  <Inhibition, %>
18.72

$$$$
>  <Compound>
CNC(=O)c1nn(C)c2c1C(C)(C)Cc1cnc(Nc3ccc(N4CCN(C)CC4)cc3)nc1-2 [MILCICLIB]

>  <Assayed Target>
Klebsiella pneumoniae

>  <Inhibition, %>
-10.97

$$$$
>  <Compound>
O=C(NC1CCN(c2ccnc3ccccc23)C1)c1cccc(C(F)(F)F)c1 (stereo not given)

>  <Assayed Target>
Klebsiella pneumoniae

>  <Inhibition, %>
12.02

$$$$
>  <Compound>
Cc1cc(C(=O)Nc2ccc(-c3ccccc3)cc2)no1

>  <Assayed Target>
Klebsiella pneumoniae

>  <Inhibition, %>
16.31

$$$$
>  <Compound>
Nc1ncnc2c1c(-c1cnc3ccccc3c1)nn2CC1CCNCC1

>  <Assayed Target>
Klebsiella pneumoniae

>  <Inhibition, %>
4.12

$$$$
>  <Compound>
NS(=O)(=O)c1cccc(-c2ccc3ncc(N4CCOCC4)nc3c2)c1

>  <Assayed Target>
Klebsiella pneumoniae

>  <Inhibition, %>
17.56

$$$$
>  <Compound>
Cc1cc(Cl)c(S(=O)(=O)N2CCCC2)cc1OCC(=O)NC1CCCCC1

>  <Assayed Target>
Klebsiella pneumoniae

>  <Inhibition, %>
2.55

$$$$
>  <Compound>
CCc1ccccc1-n1c(C)cn2c3c(=O)n(C(C(=O)OC)C(C)C)c(=O)n(C)c3nc12 (stereo not given)

>  <Assayed Target>
Klebsiella pneumoniae

>  <Inhibition, %>
8.42

$$$$
>  <Compound>
CCC(NC(=O)c1ccccc1NC(=O)c1ccc(C)cc1)C(=O)OC (stereo not given)

>  <Assayed Target>
Klebsiella pneumoniae

>  <Inhibition, %>
8.73

$$$$
>  <Compound>
O=C(C1CCN(c2nnnn2-c2ccccc2)CC1)N1CCc2ccccc2C1

>  <Assayed Target>
Klebsiella pneumoniae

>  <Inhibition, %>
12.73

$$$$
>  <Compound>
COc1ccc(Cl)cc1NC(=O)CN(C)C(=O)c1cnn(-c2ccccc2)n1

>  <Assayed Target>
Klebsiella pneumoniae

>  <Inhibition, %>
9.17

$$$$

src = ChEMBL document CHEMBL4513149
